Data provenance is the supplement of paper PMC9233669.

system: biotinyl-Ile-oxazolone; assay: self-aminoacylation, catalytic enhancement (BIO) (fold over background); higher = more active; k-Seq, kA / k0A0; sequences stand for … in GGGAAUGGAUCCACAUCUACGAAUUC…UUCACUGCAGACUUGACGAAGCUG
Variants at the floor of the assay were thinned out.
Can you tell me self-aminoacylation for the items I'm about to list?
Write the value as a bare number.

Q) State the recorded self-aminoacylation for this entry: AUUACCAUGGUCAUCGAGUGC [Fam2.1 aminoacylation ribozyme variant]
A) 1.12

Q) Now consider AUUCACUUAGGUGAUCGGGUG [Fam2.2 aminoacylation ribozyme variant] .
A) 2.46

Q) Now consider CCACCCUUCAACCAAUCGGUC [Fam1B.1 aminoacylation ribozyme variant] .
A) 1.19

Q) Now consider CUACUGAAAACAAUCGGUCUG [Fam1A.1 aminoacylation ribozyme variant] .
A) 0.84

----------
tested on: biotinyl-Met-oxazolone; test: self-aminoacylation, catalytic enhancement (BMO) (fold over background); higher = more active; k-Seq, kA / k0A0; sequences stand for … in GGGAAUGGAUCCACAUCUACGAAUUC…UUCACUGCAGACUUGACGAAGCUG
This sample holds only a part of the variants without activity.
Given measured self-aminoacylation, output true (1) if it is greater than or equal to 2 and false (0) if not.

Q) Entry UUUCACCUAGGACAUCGGGUG [Fam2.2 aminoacylation ribozyme variant] : is its self-aminoacylation no less than 2?
A) true (1)

Q) Now consider AUUACCCUGGUCAUAGAGAGA [Fam2.1 aminoacylation ribozyme variant] .
A) false (0)

Q) Now consider CCACACGUCAAGCAAUCAGUC [Fam1B.1 aminoacylation ribozyme variant] .
A) false (0)

Q) Now consider AUUACCAUGGUCCUCGAGUGA [Fam2.1 aminoacylation ribozyme variant] .
A) true (1)

Q) Now consider ACACACUUCAAGCAAUCGGCC [Fam1B.1 aminoacylation ribozyme variant] .
A) true (1)

Q) Now consider AUUACCGGGGUCAUCGAGUGA [Fam2.1 aminoacylation ribozyme variant] .
A) true (1)

Q) Now consider CUACUUCAAACUAUCGCUCUG [Fam1A.1 aminoacylation ribozyme variant] .
A) false (0)

Q) Now consider UAGUUUGCGAAUAGUCGCAAG [Fam3.1 aminoacylation ribozyme variant] .
A) false (0)

Q) Now consider CUUACCCUUGUCAUCGAGUGA [Fam2.1 aminoacylation ribozyme variant] .
A) true (1)

Q) Now consider AUUUCCCUGGUCCUCGAGUGA [Fam2.1 aminoacylation ribozyme variant] .
A) true (1)

Q) Now consider CGACUUCAAACAAGCGGUCUG [Fam1A.1 aminoacylation ribozyme variant] .
A) false (0)

Q) Now consider AUUAACCUACGUCAUCGGGUG [Fam2.2 aminoacylation ribozyme variant] .
A) true (1)

Q) Now consider AUUCACGUAGGACAUCGGGUG [Fam2.2 aminoacylation ribozyme variant] .
A) true (1)

Q) Now consider AUUACCCGGGUCAUCUAGUGA [Fam2.1 aminoacylation ribozyme variant] .
A) true (1)

Q) Now consider AUUUCCCUGGUCAUCGAGGGA [Fam2.1 aminoacylation ribozyme variant] .
A) false (0)

Q) Now consider AUUACCCUGGUGAACGAGUGA [Fam2.1 aminoacylation ribozyme variant] .
A) true (1)

Q) Now consider CAGUUUGCUAACAGUCGCAAG [Fam3.1 aminoacylation ribozyme variant] .
A) false (0)

Q) Now consider CCACACUUAAAGAAAUCGGUC [Fam1B.1 aminoacylation ribozyme variant] .
A) false (0)

Q) Now consider CUUCUUCAAACAAUCUGUCUG [Fam1A.1 aminoacylation ribozyme variant] .
A) false (0)

Q) Now consider AUUACCCUGGUCAUCGCAUGA [Fam2.1 aminoacylation ribozyme variant] .
A) true (1)

Q) Now consider CUACAUCAAACAAUCGGUCUA [Fam1A.1 aminoacylation ribozyme variant] .
A) false (0)

Q) Now consider AAGUUUGCUGAUAGCCGCAAG [Fam3.1 aminoacylation ribozyme variant] .
A) false (0)

Q) Now consider CCGCACUUCAAUCAAUCGGUC [Fam1B.1 aminoacylation ribozyme variant] .
A) false (0)

Q) Now consider AUUACCCUGGUCAUGGAGUUA [Fam2.1 aminoacylation ribozyme variant] .
A) false (0)

Q) Now consider AAGUUUGCUAAUAGUCGUAAU [Fam3.1 aminoacylation ribozyme variant] .
A) false (0)

Q) Now consider AUUACCCGGAUCAUCGAGUGA [Fam2.1 aminoacylation ribozyme variant] .
A) true (1)

Q) Now consider CCGCACUUCAAGCAAUGGGUC [Fam1B.1 aminoacylation ribozyme variant] .
A) false (0)

Q) Now consider AAGUUUGCAAAUAGUCGCAAA [Fam3.1 aminoacylation ribozyme variant] .
A) false (0)

Q) Now consider UCACACUUCAAGCAGUCGGUC [Fam1B.1 aminoacylation ribozyme variant] .
A) false (0)

Q) Now consider AUUCACCUAGGUGAUCGGGUU [Fam2.2 aminoacylation ribozyme variant] .
A) false (0)

Q) Now consider AUUACCCUGGUCAUUGAGUGC [Fam2.1 aminoacylation ribozyme variant] .
A) false (0)

Q) Now consider AUUUCCCUCGUCAUCGAGUGA [Fam2.1 aminoacylation ribozyme variant] .
A) true (1)

Q) Now consider AUUCACCGAUGUCAUCGGGUG [Fam2.2 aminoacylation ribozyme variant] .
A) true (1)
